Assay: chemical genetic growth profiling, strain panel (AID 1159580);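 also: tested at 20 µM; growth read once vehicle control cultures reached saturation at 30 °C; 1 = growth at the plate median or of vehicle wells; lower values mean less growth of the strain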
Conditions: S. cerevisiae deletion strains, growth OD, locus YNL307C, strain MCK1, active compounds read low
In all, about 5,500 compounds went through this assay and about 2,000 (36%) were called active. Roughly 18% stayed inconclusive and do not appear here. The list shows a part of the results.
In this section we review reported normalized growth values for a set of compounds.

Compound	normalized growth
CCC(=O)O[C@]1(C(=O)CCl)[C@@H](C)CC2C3CCC4=CC(=O)C=C[C@]4(C)[C@@]3(F)[C@@H](O)C[C@@]21C (some centres undefined)	0.987
CO[C@@H]1[C@@H](OC(N)=O)[C@@H](O)[C@H](Oc2ccc3c(O)c(NC(=O)c4ccc(O)c(CC=C(C)C)c4)c(=O)oc3c2C)OC1(C)C	0.991
CCC(=O)OCC(=O)C1(OC(=O)CC)C(C)CC2C3CCC4=CC(=O)C=CC4(C)C3(Cl)C(O)CC21C (centres undefined)	0.981
CO[C@@H]1C[C@H](O[C@H]2CC[C@]3(C)C4CC[C@]5(C)[C@@H](C6=CC(=O)OC6)CC[C@]5(O)[C@@H]4CC[C@]3(O)C2)O[C@H](C)[C@@H]1O (some centres undefined)	1.02
